Taken from PubChem BioAssay (NCI).

- Tested on: T-47D breast
- assay_method_text: NCI-60 one-dose screen, 48 h (100 = growth as untreated, 0 = no growth, -100 = all killed)
- study_conditions: 10 µM unless noted
This is part of a sample that, as a whole, favours compounds with a hit. Of some 83,000 tested, about 20% had one in any assay.
attribute_measured: growth (%)
One number for each entry, in %.

Some compounds with recorded growth:
CCCc1nn2c(CCC(=O)c3nc4ccc([N+](=O)[O-])cc4[nH]3)nnc2s1	102
CC(=S)Nc1ccccc1	100
CC1=C[S+](c2ccccc2)c2cccc3cc4ccccc4c1c23 (configuration not stated)	-51.9
OC[C@@H](O)C(O[C@@H]1O[C@H](CO)[C@H](O)[C@H](O)[C@H]1O)[C@H](O)[C@@H](O)CO (some centres not stated)	105
C=C1C(=O)O[C@H]2[C@H]1CC/C(COC(=O)c1ccc3ccccc3c1)=C\CC[C@@]1(C)O[C@@H]21	-55.2

Look at each compound and report its growth.
1. CN(C)c1ncc(C#Cc2c(F)cccc2F)c2ccccc12
2. COc1cc(/C=C\c2cc(/C=C\c3ccc(O)c(OC)c3)n(C(=O)CNc3ccccc3OC)n2)ccc1O

// result
36
91.8

---

- System: OVCAR-3 ovarian
- assay_method_text: NCI-60 one-dose screen, 48 h
- study_conditions: 10 µM unless noted
The panel holds about 83,000 compounds, 20% with a hit somewhere; the sample as a whole holds those more often. The source made the active and inactive calls. The calls were made as follows: active = growth percent below 10; inactive = the rest.
Your response should consist of one outcome taken from active, inactive

CCCCNc1cc(C(=O)O)cc(S(N)(=O)=O)c1Oc1ccccc1	inactive
CCOc1ccc(NC(=O)Nc2cc(C(C)C)ccc2C)cc1	inactive
N#CC1=C(N)Oc2c(ccc3ccccc23)C1c1cc(=O)oc2ccc(Cl)cc12 (stereo unspecified)	active
O=C1c2ccccc2OC=C(c2ccccc2)N1CCCCNc1ccc(F)cc1	inactive
CC(=O)c1ccc2c(c1)C1C=CCC1[C@H](c1cc3c(cc1Br)OCO3)N2 (stereo partly specified)	active

We now examine a further compound.
// query Each compound tested received a call. Report the one for `CCCC(=O)Oc1ccc(/C(=C(\C)c2ccc(OC)cc2)c2ccc(OCCN3CCCCC3)cc2)cc1` .
// result inactive

---

- Tested on: HOP-62 NSCLC
- assay_method_text: NCI-60 one-dose screen, 48 h
- study_conditions: 10 µM unless noted
The panel holds about 83,000 compounds, 20% with a hit somewhere; the sample as a whole holds those more often. The source made the active and inactive calls. The calls were made as follows: active = growth percent below 10; inactive = the rest.
Your response should consist of one outcome taken from active, inactive

Illustrative cases are given below, each with its answer.
COc1ccc(-c2cc(-c3nnc(SC/C(=N\O)c4ccccc4)n3-c3ccccc3)c3ccccc3n2)cc1	inactive
Cc1ccc(-c2cn3cc([N+](=O)[O-])ccc3n2)cc1	inactive
CCN(CC)CCC(C(=O)O)(c1ccccc1)c1ccccc1	inactive
COc1ccc(SC2c3ccc(O)cc3Oc3nc(N)c(C#N)c(N)c32)cc1 (stereo not drawn)	inactive
COc1ccc(Cl)cc1NC(=O)c1cc2c([nH]1)-c1nc(NC(=O)C(C)(C)C)sc1CC2	inactive
O=C(O)c1ccc(-c2nn(-c3ccc(C(=O)O)cc3)cc2/C=N/Nc2c(F)c(F)cc(F)c2F)cc1	inactive

// query Each compound tested received a call. Report the one for `CCCCCn1ncc(-c2c(O)c(O)cc3c(O)c(-c4c(C)cc5c(-c6cnn(CCCCC)n6)c(O)c(O)cc5c4O)c(C)cc23)n1` .
// result active

// query Each compound tested received a call. Report the one for `CC(C)CCC[C@@H](C)[C@H]1CC[C@H]2[C@@H]3CC=C4N(c5ccccc5)C(=O)CC[C@]4(C)[C@H]3CC[C@]12C` .
// result inactive
